Values compiled from patent US20250268901A1.

# System: MIA-PA-CA-2 cells
# ASSAY_REMARKS: Cell proliferation assay (CellTiter-Glo), MIA-PA-CA-2
# Type: cell-based, Human
# MEASUREMENT_PARAMETERS: Homo sapiens, MIA PaCa-2; MIA-PA-CA-2, 72 h incubation, CellTiter-Glo
pIC50: −log10 of the molar value.

| MOL | pIC50 |
| --- | --- |
| C=CC(=O)N1CCN(c2nc(N3CC(N(CC)CC)C3)nc3c(=O)n(-c4c(N)c(Cl)cc(Cl)c4F)c(C(F)(F)F)cc23)CC1 | 7.47 |

###

# Tested on: A375 cells
# ASSAY_REMARKS: Cell proliferation assay (CellTiter-Glo), A375
# Format: cell-based, Human
# MEASUREMENT_PARAMETERS: Homo sapiens, A-375; A375, 72 h incubation, CellTiter-Glo

| MOL | IC50 |
| --- | --- |
| C=CC(=O)N1CCN(c2nc(N3CC(N(CC)CC)C3)nc3c(=O)n(-c4c(N)c(Cl)cc(Cl)c4F)c(C(F)(F)F)cc23)CC1 | 4.64 µM |
